Assay Remarks: in vivo
Set-up: species or system mice
Test Conditions: male, NOD.Cg-Rag1tm1Mom Il2rgtm1Wjl/SzJ (NRG), mouse, iv, total radioactivity, Biodistribution: Spleen
Where a SMILES comes first, the peptide text is derived from it. Bridges are numbered along the chain shown (N, C = ends). Side-chain parts run from the residue outwards. [ ]: non-standard residue; d: D form. The star is where a group is joined. X4 = O=C(O)CN1CCN(CC(=O)O)CCN(CC(=O)N[C@@H](CS(=O)(=O)O)C(=O)NCCCC[C@H](NC(=O)CNC(=O)CCCc2ccc(Cl)cc2)C(=O)*)CCN(CC(=O)O)CC1; X3 = O=C(O)CN1CCN(CC(=O)O)CCN(CC(=O)N[C@@H](CS(=O)(=O)O)C(=O)N[C@@H](CCCCNC(=O)CCCc2ccc(Br)cc2)C(=O)*)CCN(CC(=O)O)CC1; X1 = O=C(O)CN1CCN(CC(=O)O)CCN(CC(=O)N[C@@H](CS(=O)(=O)O)C(=O)N[C@@H](CCCCNC(=O)CCCc2ccc(I)cc2)C(=O)*)CCN(CC(=O)O)CC1; X7 = COc1ccc(CCCC(=O)NCCCC[C@H](NC(=O)CN2CCN(CC(=O)O)CCN(CC(=O)O)CCN(CC(=O)O)CC2)C(=O)*)cc1; DOTA = O=C(O)CN1CCN(CC(=O)O)CCN(CC(=O)*)CCN(CC(=O)O)CC1; NMeLys(iPr) = CN[C@@H](CCCCNC(C)C)C(=O)O; 2Nal = N[C@@H](Cc1ccc2ccccc2c1)C(=O)O; Lys(iPr) = CC(C)NCCCC[C@H](N)C(=O)O; Cya = N[C@@H](CS(=O)(=O)O)C(=O)O
Quantity: tissue uptake at 1 h (%ID/g)

{"Molecule": "CC(C)NCCCC[C@H](NC(=O)[C@H]1CCC(=O)N[C@@H](CCCCNC(=O)[C@H](CCCCNC(=O)CCCc2ccc(I)cc2)NC(=O)[C@H](CS(=O)(=O)O)NC(=O)CN2CCN(CC(=O)O)CCN(CC(=O)O)CCN(CC(=O)O)CC2)C(=O)N[C@@H](Cc2ccc(O)cc2)C(=O)N[C@@H](CCCCNC(C)C)C(=O)N[C@H](CCCNC(=N)N)C(=O)N[C@@H](Cc2ccc3ccccc3c2)C(=O)N[C@H](C)C(=O)N1)C(N)=O [[^68Ga]Ga-BL34L11, metal not drawn] (K(X1)Y[Lys(iPr)][dR][2Nal][dA][dE][Lys(iPr)]-NH2; lactam N-7)", "Quantity": "tissue uptake at 1 h", "Quantitative Result": 2.35}
{"Molecule": "CC(C)NCCCC[C@H](NC(=O)[C@H]1CCC(=O)N[C@@H](CCCCNC(=O)[C@H](CS(=O)(=O)O)NC(=O)CN2CCN(CC(=O)O)CCN(CC(=O)O)CCN(CC(=O)O)CC2)C(=O)N[C@@H](Cc2ccc(O)cc2)C(=O)N(C)[C@@H](CCCCNC(C)C)C(=O)N[C@H](CCCNC(=N)N)C(=O)N[C@@H](Cc2ccc3ccccc3c2)C(=O)N[C@H](C)C(=O)N1)C(N)=O [[^68Ga]Ga-BL34N1, metal not drawn] (K([Cya-DOTA])Y[NMeLys(iPr)][dR][2Nal][dA][dE][Lys(iPr)]-NH2; lactam N-7)", "Quantity": "tissue uptake at 1 h", "Quantitative Result": 0.26}
{"Molecule": "COc1ccc(CCCC(=O)NCCCC[C@H](NC(=O)CN2CCN(CC(=O)O)CCN(CC(=O)O)CCN(CC(=O)O)CC2)C(=O)N[C@@H](CS(=O)(=O)O)C(=O)NCCCC[C@@H]2NC(=O)CC[C@H](C(=O)N[C@@H](CCCCNC(C)C)C(N)=O)NC(=O)[C@@H](C)NC(=O)[C@H](Cc3ccc4ccccc4c3)NC(=O)[C@@H](CCCNC(=N)N)NC(=O)[C@H](CCCCNC(C)C)NC(=O)[C@H](Cc3ccc(O)cc3)NC2=O)cc1 [[68Ga]Ga-BL34L6, metal not drawn] (K([Cya-X7])Y[Lys(iPr)][dR][2Nal][dA][dE][Lys(iPr)]-NH2; lactam N-7)", "Quantity": "tissue uptake at 1 h", "Quantitative Result": 0.45}
{"Molecule": "CC(C)NCCCC[C@H](NC(=O)[C@H]1CCC(=O)N[C@@H](CCCCNC(=O)[C@H](CCCCNC(=O)CCCc2ccc(Br)cc2)NC(=O)[C@H](CS(=O)(=O)O)NC(=O)CN2CCN(CC(=O)O)CCN(CC(=O)O)CCN(CC(=O)O)CC2)C(=O)N[C@@H](Cc2ccc(O)cc2)C(=O)N[C@@H](CCCCNC(C)C)C(=O)N[C@H](CCCNC(=N)N)C(=O)N[C@@H](Cc2ccc3ccccc3c2)C(=O)N[C@H](C)C(=O)N1)C(N)=O [[^177Lu]Lu-BL34L20, metal not drawn] (K(X3)Y[Lys(iPr)][dR][2Nal][dA][dE][Lys(iPr)]-NH2; lactam N-7)", "Quantity": "tissue uptake at 1 h", "Quantitative Result": 1.92}
{"Molecule": "CC(C)NCCCC[C@H](NC(=O)[C@@H]1CCSc2c3cccc([N+](=O)[O-])c3cn2[C@@H](CCCCNC(=O)[C@H](CS(=O)(=O)O)NC(=O)CN2CCN(CC(=O)O)CCN(CC(=O)O)CCN(CC(=O)O)CC2)C(=O)CC(Cc2ccc(O)cc2)C(=O)N[C@@H](CCCCNC(C)C)C(=O)N[C@H](CCCNC(=N)N)C(=O)N[C@@H](Cc2ccc3ccccc3c2)C(=O)N[C@H](C)C(=O)N1)C(N)=O (stereo partly drawn) [[^68Ga]Ga-3NOPA-BL34L2, metal not drawn]", "Quantity": "tissue uptake at 1 h", "Quantitative Result": 2.44}
{"Molecule": "CC(C)NCCCC[C@H](NC(=O)[C@H]1CCC(=O)N[C@@H](CCCCNC(=O)[C@H](CCCCNC(=O)[C@H](CS(=O)(=O)O)NC(=O)CN2CCN(CC(=O)O)CCN(CC(=O)O)CCN(CC(=O)O)CC2)NC(=O)CNC(=O)CCCc2ccc(Cl)cc2)C(=O)N[C@@H](Cc2ccc(O)cc2)C(=O)N[C@@H](CCCCNC(C)C)C(=O)N[C@H](CCCNC(=N)N)C(=O)N[C@@H](Cc2ccc3ccccc3c2)C(=O)N[C@H](C)C(=O)N1)C(N)=O [[68Ga]Ga-BL34T1, metal not drawn] (K(X4)Y[Lys(iPr)][dR][2Nal][dA][dE][Lys(iPr)]-NH2; lactam N-7)", "Quantity": "tissue uptake at 1 h", "Quantitative Result": 2.3}

Values from patent US20250242064A1
